- TESTED ON: CDK12–cyclin K and DDB1 (Homo sapiens, UniProt Q16531+Q9NYV4, K965R)
- Construct: His6–CDK12 (a.a. 713–1,052); full-length or beta-propeller B domain deletion (ΔBPB: a.a. 396–705 deleted) constructs of His6–DDB1ΔBPB, StrepII–Avi–DDB1, or His6–Spy–DDB1; made in house; host or cells: Trichoplusia ni High Five insect cells (baculovirus)
- Sequence (Q9NYV4 713-1052 K965R): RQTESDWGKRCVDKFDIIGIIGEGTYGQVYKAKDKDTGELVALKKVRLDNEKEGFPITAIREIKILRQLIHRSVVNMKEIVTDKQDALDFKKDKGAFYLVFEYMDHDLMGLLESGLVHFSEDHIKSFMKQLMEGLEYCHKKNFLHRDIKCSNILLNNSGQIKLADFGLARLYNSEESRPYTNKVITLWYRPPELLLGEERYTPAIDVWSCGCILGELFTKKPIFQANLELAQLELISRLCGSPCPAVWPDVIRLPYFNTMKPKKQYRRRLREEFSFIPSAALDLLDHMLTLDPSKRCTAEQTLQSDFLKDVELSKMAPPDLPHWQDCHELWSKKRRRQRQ
- Sequence (O75909 1-267 partner): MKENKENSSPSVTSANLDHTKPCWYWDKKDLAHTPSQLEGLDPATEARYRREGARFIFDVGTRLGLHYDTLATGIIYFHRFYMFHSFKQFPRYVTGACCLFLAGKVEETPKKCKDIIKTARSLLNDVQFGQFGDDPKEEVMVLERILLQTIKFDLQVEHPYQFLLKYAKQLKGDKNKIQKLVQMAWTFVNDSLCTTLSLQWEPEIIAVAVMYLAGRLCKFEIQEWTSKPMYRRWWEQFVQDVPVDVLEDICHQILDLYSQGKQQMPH
- Sequence (Q16531 whole entry): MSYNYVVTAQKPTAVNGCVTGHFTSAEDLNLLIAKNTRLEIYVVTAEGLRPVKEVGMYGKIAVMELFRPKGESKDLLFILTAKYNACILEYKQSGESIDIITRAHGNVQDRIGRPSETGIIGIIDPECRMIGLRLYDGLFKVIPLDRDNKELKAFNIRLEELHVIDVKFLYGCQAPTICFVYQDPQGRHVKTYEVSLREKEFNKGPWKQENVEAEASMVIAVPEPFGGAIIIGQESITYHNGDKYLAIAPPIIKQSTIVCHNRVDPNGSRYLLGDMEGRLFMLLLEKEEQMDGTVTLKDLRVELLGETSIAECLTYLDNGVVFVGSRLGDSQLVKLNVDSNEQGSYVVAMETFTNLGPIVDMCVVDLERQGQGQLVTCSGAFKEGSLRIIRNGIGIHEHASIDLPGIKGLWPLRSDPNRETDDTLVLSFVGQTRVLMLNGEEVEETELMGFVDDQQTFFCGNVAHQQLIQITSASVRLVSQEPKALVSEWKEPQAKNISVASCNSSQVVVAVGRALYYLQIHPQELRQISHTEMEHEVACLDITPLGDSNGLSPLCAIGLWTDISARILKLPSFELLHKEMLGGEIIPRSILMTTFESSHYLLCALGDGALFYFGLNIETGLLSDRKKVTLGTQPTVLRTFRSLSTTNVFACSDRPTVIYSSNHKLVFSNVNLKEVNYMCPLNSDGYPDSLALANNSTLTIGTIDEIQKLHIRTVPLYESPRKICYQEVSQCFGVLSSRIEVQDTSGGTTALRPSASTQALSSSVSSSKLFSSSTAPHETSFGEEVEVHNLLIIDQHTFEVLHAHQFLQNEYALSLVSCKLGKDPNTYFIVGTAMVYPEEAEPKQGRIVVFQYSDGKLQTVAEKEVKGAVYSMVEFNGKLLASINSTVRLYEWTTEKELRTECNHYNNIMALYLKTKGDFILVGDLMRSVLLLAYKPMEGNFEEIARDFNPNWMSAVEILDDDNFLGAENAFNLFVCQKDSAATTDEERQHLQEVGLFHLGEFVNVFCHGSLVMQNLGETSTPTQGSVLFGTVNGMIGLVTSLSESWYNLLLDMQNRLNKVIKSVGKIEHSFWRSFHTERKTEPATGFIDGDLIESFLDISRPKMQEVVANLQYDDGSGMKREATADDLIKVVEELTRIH
- ASSAY INFO: TR-FRET Kd determination, quadratic fit, 50 nM or 10 nM CDK12–cyclin K
- Format: binding
- MEASUREMENT CONTEXT: 10 nM CDK12-cyclin K; compound 244.8 nM
READOUT: TR-FRET signal
Quick one: just the number, no unit, thanks!

Query: Lookup: TR-FRET signal / CDK12–cyclin K and DDB1 (Homo sapiens, UniProt Q16531+Q9NYV4, K965R) / CCC(CO)Nc1nc(NCc2ccc(-c3ccccn3)cc2)c2ncn(C(C)C)c2n1 (stereo not shown) [CR8, reference compound]
Reply: 0.5242

Query: Lookup: TR-FRET signal / CDK12–cyclin K and DDB1 (Homo sapiens, UniProt Q16531+Q9NYV4, K965R) / "CC[C@H](CO)Nc1nc(NCc2nc3cc(Cl)c(Cl)cc3[nH]2)c2ncn(C(C)C)c2n1"
Reply: 0.5785

Query: Lookup: TR-FRET signal / CDK12–cyclin K and DDB1 (Homo sapiens, UniProt Q16531+Q9NYV4, K965R) / Cc1cc2nc(CNc3nc(N4CCN(C)CC4)nc4c(Br)cnn34)[nH]c2cc1C [DS73, reference compound]
Reply: 0.5439

Query: Lookup: TR-FRET signal / CDK12–cyclin K and DDB1 (Homo sapiens, UniProt Q16531+Q9NYV4, K965R) / CCC(CO)Nc1nc(NCc2ccc(-c3ccccc3)cc2)c2ncn(C(C)C)c2n1 (stereo not shown)
Reply: 0.4586

###

Please provide measured TR-FRET signal for the entries that follow.
- TESTED ON: CDK12–cyclin K and DDB1 (Homo sapiens, UniProt Q16531+Q9NYV4, K965R)
- Construct: His6–CDK12 (a.a. 713–1,052); full-length or beta-propeller B domain deletion (ΔBPB: a.a. 396–705 deleted) constructs of His6–DDB1ΔBPB, StrepII–Avi–DDB1, or His6–Spy–DDB1; made in house; host or cells: Trichoplusia ni High Five insect cells (baculovirus)
- ASSAY INFO: TR-FRET Kd determination, quadratic fit, 50 nM or 10 nM CDK12–cyclin K
- Type: binding
- MEASUREMENT CONTEXT: 50 nM CDK12-cyclin K; compound 7.92 nM
Quick one: just the number, no unit, thanks!

Query: Lookup: TR-FRET signal / CDK12–cyclin K and DDB1 (Homo sapiens, UniProt Q16531+Q9NYV4, K965R) / "CC[C@H](CO)Nc1nc(NCc2nc3cc(Cl)c(Cl)cc3[nH]2)c2ncn(C(C)C)c2n1"
Reply: 0.8383

Query: Lookup: TR-FRET signal / CDK12–cyclin K and DDB1 (Homo sapiens, UniProt Q16531+Q9NYV4, K965R) / CCC(CO)Nc1nc(NCc2ccc(-c3ccccn3)cc2)c2ncn(C(C)C)c2n1 (stereo not shown) [CR8, reference compound]
Reply: 0.4723

Query: Lookup: TR-FRET signal / CDK12–cyclin K and DDB1 (Homo sapiens, UniProt Q16531+Q9NYV4, K965R) / CCC(CO)Nc1nc(NCc2ccc(-c3ccccc3)cc2)c2ncn(C(C)C)c2n1 (stereo not shown)
Reply: 0.6539

Query: Lookup: TR-FRET signal / CDK12–cyclin K and DDB1 (Homo sapiens, UniProt Q16531+Q9NYV4, K965R) / Cc1cc2nc(CNc3nc(N4CCN(C)CC4)nc4c(Br)cnn34)[nH]c2cc1C [DS73, reference compound]
Reply: 0.5318
